- Test system: E. coli TolC(−)
- TEST PARAMETERS: MIC in the presence of 10% fetal calf serum versus without
MEASURED METRIC: Fold Serum Shift vs. TolC(−) (fold)
Could you give me the number in fold? Just the number is fine.

For O=C(Nc1nnc(-c2ccc(F)cc2)o1)c1ccc(Oc2cccc(O)c2)cc1 , write its Fold Serum Shift vs. TolC(−).
28.5

For O=C(Nc1nnc(-c2ccc(F)cc2)o1)N1CCC(C(F)(F)F)CC1 , write its Fold Serum Shift vs. TolC(−).
4

For Cc1cccc(-c2nnc(NC(=O)c3ccc(Oc4ccccc4)nc3)o2)c1 , write its Fold Serum Shift vs. TolC(−).
20

For O=C(Nc1nnc(-c2ccc(F)cc2)o1)N1CCc2ccccc2C1 , write its Fold Serum Shift vs. TolC(−).
12.7

For CC1=CCN(C(=O)Nc2nnc(-c3ccc(F)cc3)o2)CC1 , write its Fold Serum Shift vs. TolC(−).
4

Measured values drawn from patent US11505533B2 for this set.
